Examples of molecules with documented Km follow.
Test system: purified β-glucosidase from Candida peltata Y-21603
Assay: Substrate specificity and kinetic analysis (Lineweaver-Burk)
Type: biochemical
Settings: pH 5.0 and 50° C.; read-out: apparent Km

MOLECULE	Km
OC[C@H]1O[C@@H](O[C@H]2[C@H](O)[C@@H](O)[C@H](O[C@H]3[C@H](O)[C@@H](O)[C@H](O[C@H]4[C@H](O)[C@@H](O)[C@H](O[C@H]5[C@H](O)[C@@H](O)C(O)O[C@@H]5CO)O[C@@H]4CO)O[C@@H]3CO)O[C@@H]2CO)[C@H](O)[C@@H](O)[C@@H]1O (some centres unmarked)	21 mM
OC[C@H]1O[C@@H](O[C@H]2[C@H](O)[C@@H](O)C(O)O[C@@H]2CO)[C@H](O)[C@@H](O)[C@@H]1O (some centres unmarked)	66 mM
